Give IC50 for every item shown.
Target: human DGKα (Homo sapiens (Human))
Sequence (P23743 whole entry, looked up): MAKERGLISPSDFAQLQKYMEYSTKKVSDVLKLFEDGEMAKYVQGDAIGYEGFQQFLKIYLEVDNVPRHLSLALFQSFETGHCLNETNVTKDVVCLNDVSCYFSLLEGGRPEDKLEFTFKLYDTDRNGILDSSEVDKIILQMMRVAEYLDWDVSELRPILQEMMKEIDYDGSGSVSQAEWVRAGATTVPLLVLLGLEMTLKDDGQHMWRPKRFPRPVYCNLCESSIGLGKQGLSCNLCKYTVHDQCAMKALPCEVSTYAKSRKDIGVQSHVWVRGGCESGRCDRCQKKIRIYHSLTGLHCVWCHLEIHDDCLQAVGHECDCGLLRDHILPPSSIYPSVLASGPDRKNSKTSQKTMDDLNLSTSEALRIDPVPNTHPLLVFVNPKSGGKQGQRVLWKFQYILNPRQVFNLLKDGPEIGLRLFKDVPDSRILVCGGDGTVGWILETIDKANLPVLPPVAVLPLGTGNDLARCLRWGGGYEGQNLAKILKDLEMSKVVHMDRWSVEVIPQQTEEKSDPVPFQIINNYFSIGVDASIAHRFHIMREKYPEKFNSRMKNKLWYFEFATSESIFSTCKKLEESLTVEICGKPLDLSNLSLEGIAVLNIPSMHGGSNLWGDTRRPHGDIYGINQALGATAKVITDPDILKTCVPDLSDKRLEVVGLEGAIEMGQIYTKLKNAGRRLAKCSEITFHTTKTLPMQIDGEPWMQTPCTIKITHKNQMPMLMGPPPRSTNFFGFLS
Assay: DGKα LIPGLO assay (extruded liposome substrate, ADP-Glo luminescence)
Type: biochemical
Details: liposome assay; read-out: DGK alpha LIPGLO IC50
Give bare numbers, in nM.

Guide cases for IC50, answers given:
> print(dat)
                                   compound  observable  uom  measvalue
1  CC[C@H]1CN(C(C)c2ccc(C(F)(F)F)cc2)[C@H](CC)CN1c1nc(=O)n(C)c2ccc(C#N)nc12 (single isomer, unassigned) [Example 21]        IC50   nM        386
2  CC[C@H]1CN(C(C)c2ccc(C(F)(F)F)cc2F)[C@H](C)CN1c1nc(=O)n(C)c2ccc(C#N)nc12 (stereo partly drawn) [Example 119]        IC50   nM        650

Okay, now this compound:
Challenge: Any idea what its IC50 is? The compound is CC[C@@H]1CN(c2nc(=O)n(C)c3ccc(C#N)nc23)[C@@H](C)CN1C(C)c1ccc2c(c1)OC(F)(F)O2 (single isomer, unassigned) [Example 71]
Response given: 670
